# TESTED TARGET: T1, biotin-labeled human CD137 fused to human IgG1 Fc fragment (human, biotin-labeled)
# T1 construct: Immobilised on streptavidin beads through biotin; also called human CD137-Fc; biotin-human CD137-Fc
# T1 sequence (chain, as listed by the source limits assumed): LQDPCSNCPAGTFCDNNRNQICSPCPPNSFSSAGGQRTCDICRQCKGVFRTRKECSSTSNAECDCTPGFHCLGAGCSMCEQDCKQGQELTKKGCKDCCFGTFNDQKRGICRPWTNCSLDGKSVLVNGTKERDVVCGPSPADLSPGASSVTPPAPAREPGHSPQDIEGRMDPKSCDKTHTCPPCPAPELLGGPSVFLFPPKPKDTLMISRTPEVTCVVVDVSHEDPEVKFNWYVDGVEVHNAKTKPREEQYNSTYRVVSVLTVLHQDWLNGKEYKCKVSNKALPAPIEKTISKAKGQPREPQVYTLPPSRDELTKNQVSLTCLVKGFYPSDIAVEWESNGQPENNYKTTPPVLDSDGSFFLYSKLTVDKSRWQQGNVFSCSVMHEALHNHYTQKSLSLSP
# ASSAY METHOD TEXT: bead ELISA, IgG on biotin-human CD137-Fc on streptavidin beads, no free CD3e
# ELISA signal, free CD3e 0 pmol/well per entry
MEASUREMENT TYPE: ELISA signal, free CD3e 0 pmol/well

dBBDu204 (antibody, human IgG1, V domains shown, IgG: VH joined to human IgG1 CH1-Fc, GLS3000 as light chain) VH: QVQLVESGGGLVQPGRSLRLSCAASGFTFSNAWMHWVRQAPGKGLEWVAQIKDRSNNYATYYAESVKGRFTISRDDSKNSIYLQMNSLKTEDTAVYYCHYVHYASASTVLPAFGVDAWGQGTTVTVSS VL: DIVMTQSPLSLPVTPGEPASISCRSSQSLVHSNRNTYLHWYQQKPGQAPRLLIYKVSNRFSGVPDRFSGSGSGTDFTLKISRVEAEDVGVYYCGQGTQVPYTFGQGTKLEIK    43700
dBBDu122 (antibody, human IgG1, V domains shown, IgG: VH joined to human IgG1 CH1-Fc, GLS3000 as light chain; also called DXDU01_3_#072; DXDU01_3 #072) VH: QVQLVESGGGLVQPGRSLRLSCAASGFTFSNAWMHWVRQAPGKGLEWVAQIKDRSQLYAAYYAPSVKGRFTISRDDSKNSIYLQMNSLKTEDTAVYYCHYVHYASASTVLGAYGVDAWGQGTTVTVSS VL: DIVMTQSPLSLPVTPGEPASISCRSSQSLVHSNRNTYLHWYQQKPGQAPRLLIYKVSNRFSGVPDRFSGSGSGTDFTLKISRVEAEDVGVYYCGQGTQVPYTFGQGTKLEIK    2700
dBBDu199 (antibody, human IgG1, V domains shown, IgG: VH joined to human IgG1 CH1-Fc, GLS3000 as light chain) VH: QVQLVESGGGLVQPGRSLRLSCAASGFTFSNAWMHWVRQAPGKGLEWVAQIKDKQSGYNTYYAPSVKGRFTISRDDSKNSIYLQMNSLKTEDTAVYYCHYVHYASASTVLPAFGVDAWGQGTTVTVSS VL: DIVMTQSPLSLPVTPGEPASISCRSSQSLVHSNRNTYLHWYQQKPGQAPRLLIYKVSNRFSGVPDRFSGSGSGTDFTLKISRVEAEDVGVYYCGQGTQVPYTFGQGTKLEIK    40900
